# System: SKOV3
# protocol.details: Primary qHTS to identify gynecologic anti-cancer compounds using libraries of approved drugs and bioactive compounds (AID 1345084); further: nearly all actives have a fitted effect of over 55% in size
# measurement.context: Gynecologic cancer cell panel viability, ATPlite luminescence, 48 h; series mostly up to 57.5 µM
# From the text: National Center for Advancing Translational Sciences [NCATS] Assay Overview: Chemotherapeutic drug responses vary from cancer to cancer and from patient to patient. […] ATPlite is a luminescence based assay reliant on the conversion of a luciferase substrate to light in the presence of ATP. As a cytotoxic compound will suppress growth and decrease the number of cells, the concentration of ATP will decrease, and less light signal will be detected in the well. […]
Inconclusive results are not listed. Active and inactive are the calls of the source. The call rests on the fitted dose curve; in most records, active means well fitted cell-killing curve with a large enough effect; inconclusive means small, poorly fitted or top-dose-only effect, or effect the other way; inactive means flat fitted curve, though single readings scatter.
Returns: one label drawn from active, inactive

These solved cases illustrate the format of a correct answer.
CN1C(=O)N(c2ccc(C#N)c(C(F)(F)F)c2)C(=O)[C@]1(CO)c1ccccc1 = inactive
CN1C(=O)c2ccccc2NC(=O)C1Cc1ccccc1 (centres undefined) = inactive
CO[C@@H]1[C@H](O)[C@@H](O[C@@H]2C[C@H]3CC[C@@H]4C(CC[C@]5(C)[C@@H](C6=CC(=O)OC6)CC[C@]45O)[C@@]3(C)[C@H](O)C2)O[C@H](C)[C@@H]1O[C@@H]1O[C@H](CO)[C@@H](O)[C@H](O)[C@H]1O (some centres undefined) = active
C[C@@H]1C(=O)O[C@H]2[C@H](O)[C@@]34[C@@H]5OC(=O)[C@@]3(O[C@@H]3OC(=O)[C@@H](O)[C@@]34[C@H](C(C)(C)C)[C@H]5O)[C@@]12O = inactive
Cc1cn(C[C@H](N)C(=O)O)c(=O)n(Cc2cc(-c3ccccc3)sc2C(=O)O)c1=O = inactive

Q: Fill in: this test's call for C[C@]12CC[C@@H](O)C[C@H]1CC[C@@H]1[C@@H]2CC[C@]2(C)C(=O)CC[C@@H]12 is ___
A: inactive

Q: Field entry: COC1CC(=O)C23C(=O)NC(CC(C)C)C2C(C)=C(C)C(OO)C3/C=C(\C)CCC(O)C1O (centres undefined)
A: inactive

Q: Another compound to look at: CC(C)=C1CC[C@]23CO[C@H](C2)[C@@](O)(C(=O)O)CCC13 (some centres undefined)
A: inactive

Q: Please do the same for CC(C)C1(OO)C=C2C(=O)CC3C(C)(C(=O)O)CCCC3(C)C2CC1 (centres undefined) as well.
A: inactive

Q: Query CC(C)(O)[C@H]1O[C@H]2CC[C@@]3(C)[C@@](O)(CC[C@H]4Cc5c([nH]c6ccccc56)[C@@]43C)C2=CC1=O next
A: inactive

Q: Please answer likewise for Cn1ncnc1COc1nn2c(-c3c(F)cccc3F)nnc2cc1C1CCC1
A: inactive

Q: // repeat for COC1=CC(=O)O[C@@H](CCc2ccccc2)C1 and report
A: inactive

Q: // query: CN(C(=O)Cc1ccccc1)C(CN1CCCC1)c1ccccc1 (centres undefined)
A: inactive

Q: Same lookup for COc1c(C(C)C)cc2c(c1O)[C@@]1(C(=O)O)CCCC(C)(C)C1CC2 (some centres undefined) , please.
A: inactive

# credit: PubChem BioAssay (NCATS)
